Species: Rattus norvegicus
Assay: Lysozyme-conjugated prodrugs: in vitro stability at pH 5
Format: functional
endpoint_label: Drug release

| molecule | result |
| --- | --- |
| COc1ccc2c(c1)c(CC(=O)O)c(C)n2C(=O)c1ccc(Cl)cc1 | Stable |
| COc1ccc2cc([C@H](C)C(=O)O)ccc2c1 | Stable |
| Nc1ccc2ccccc2c1 | Stable |
| Nc1nc(N)c2nc(-c3ccccc3)c(N)nc2n1 | Stable |

* * *

Reported Drug release values for a set of compounds
Organism: Rattus norvegicus
Experiment: Lysozyme-conjugated prodrugs: in vitro stability at pH 5
Format: ADME

| compound | modifier_sign | Drug release, % |
| --- | --- | --- |
| COc1ccc2cc(C(C)C(=O)N[C@@H](CC(C)C)C(=O)NCC(=O)NCC(=O)O)ccc2c1 (stereo in doubt; 1c) | < | 1 |
| COc1ccc2cc(C(C)C(=O)NCC(=O)O)ccc2c1 (stereo not given) | = | 0 |
| CC(C)C[C@H](N)C(=O)Nc1nc(N)c2nc(-c3ccccc3)c(N)nc2n1 | = | 0 |
| COc1ccc2cc(C(C)C(=O)N[C@H](C(=O)O)C(C)C)ccc2c1 (stereo not given in full) | = | 0 |
| COc1ccc2cc(C(C)C(=O)OCC(=O)O)ccc2c1 (stereo not given) | = | 1 |
